# Test system: 254851-301-R-J1-PDC spheroids, viability % test/control
# assay-overview: Anticancer human tumor 254851-301-R-J1-PDC patient-derived colon carcinoma cell line growth inhibition [TAK]
# cond: second compound 30 µM; first compound 0.001 µM; stronger effect = lower value; spheroids with HUVEC and MSC
// values below are reported viability, T/C

Answered cases to consult:
| compound | viability, T/C |
| --- | --- |
| CC(C)n1nc(-c2ccc3oc(N)nc3c2)c2c(N)ncnc21 + CC(C)NCC(C(=O)N1CCN(c2ncnc3c2C(C)CC3O)CC1)c1ccc(Cl)cc1 | 86.5% |
| CC(C)CC(NC(=O)CNC(=O)c1cc(Cl)ccc1Cl)B1OC(=O)CC(CC(=O)O)(C(=O)O)O1 (centres undefined) + CC(C)NCC(C(=O)N1CCN(c2ncnc3c2C(C)CC3O)CC1)c1ccc(Cl)cc1 | 63% |
| COC1CC2CCC(C)C(O)(O2)C(=O)C(=O)N2CCCCC2C(=O)OC(C(C)CC2CCC(OCCO)C(OC)C2)CC(=O)C(C)C=C(C)C(O)C(OC)C(=O)C(C)CC(C)C=CC=CC=C1C (centres undefined) + CC(C)NCC(C(=O)N1CCN(c2ncnc3c2C(C)CC3O)CC1)c1ccc(Cl)cc1 | 95.2% |

Next up:
Recorded viability, T/C (compound CC(C)CC(NC(=O)C(Cc1ccccc1)NC(=O)c1cnccn1)B(O)O (centres undefined) + CC(C)NCC(C(=O)N1CCN(c2ncnc3c2C(C)CC3O)CC1)c1ccc(Cl)cc1 ): 89%

---

# System: 254851-301-R-J1-PDC spheroids, viability % test/control
# assay-overview: Anticancer human tumor 254851-301-R-J1-PDC cell line growth inhibition [TAK];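 note: spheroids exposed to drugs for seven days before viability readout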;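 for viability, T/C: 100% = DMSO vehicle control viability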
# cond: second compound 9.49 µM; first compound 0.00316 µM; stronger effect = lower value; spheroids with HUVEC and MSC
# Description: Combinatorial screen of targeted agents with TAK-243 and ipatasertib in multi-cell type tumor spheroids […] Compounds. […] If the clinical Cmax for an agent had not been determined, the highest concentration tested was 10 microM. NCI60 Cell Culture. […] The optimal seeding densities for each of the cell lines at each time point assessed were determined prior to performing the concentration response studies. […]
Recorded viability, T/C values for a group of compounds are listed next.
Answer with a number only, understood to be in %.

| compound | reported-property | endpoint-result |
| --- | --- | --- |
| COC1CC2CCC(C)C(O)(O2)C(=O)C(=O)N2CCCCC2C(=O)OC(C(C)CC2CCC(OCCO)C(OC)C2)CC(=O)C(C)C=C(C)C(O)C(OC)C(=O)C(C)CC(C)C=CC=CC=C1C (stereo not given) + CC(C)NCC(C(=O)N1CCN(c2ncnc3c2C(C)CC3O)CC1)c1ccc(Cl)cc1 | viability, T/C | 98 |

Below: the item to evaluate.
Form field viability, T/C, entry CC(C)n1nc(-c2ccc3oc(N)nc3c2)c2c(N)ncnc21 + CC(C)NCC(C(=O)N1CCN(c2ncnc3c2C(C)CC3O)CC1)c1ccc(Cl)cc1 : 90.8

---

# Test system: 254851-301-R-J1-PDC spheroids, viability % test/control
# assay-overview: Anticancer human tumor 254851-301-R-J1-PDC cell line growth inhibition [TAK];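 note: spheroids exposed to drugs for seven days before viability readout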
# cond: curve of first compound; second compound 0.3 µM; spheroids with HUVEC and MSC
pIC50: −log10 of the molar value.
List of pIC50 values.

Solved entries:
| compound | pIC50 |
| --- | --- |
| COc1c(OCCCN2CCOCC2)ccc2c3n(c(=NC(=O)c4cnc(N)nc4)nc12)CCN3 + CC(C)NCC(C(=O)N1CCN(c2ncnc3c2C(C)CC3O)CC1)c1ccc(Cl)cc1 | < 6.00 |
| COC1CC2CCC(C)C(O)(O2)C(=O)C(=O)N2CCCCC2C(=O)OC(C(C)CC2CCC(OCCO)C(OC)C2)CC(=O)C(C)C=C(C)C(O)C(OC)C(=O)C(C)CC(C)C=CC=CC=C1C (stereo unspecified) + CC(C)NCC(C(=O)N1CCN(c2ncnc3c2C(C)CC3O)CC1)c1ccc(Cl)cc1 | < 7.00 |
| CC(C)(C)c1nc(-c2cccc(NS(=O)(=O)c3c(F)cccc3F)c2F)c(-c2ccnc(N)n2)s1 + CC(C)NCC(C(=O)N1CCN(c2ncnc3c2C(C)CC3O)CC1)c1ccc(Cl)cc1 | < 5.00 |
| Cc1nc(NC(=O)N2CCCC2C(N)=O)sc1-c1ccnc(C(C)(C)C(F)(F)F)c1 (stereo unspecified) + CC(C)NCC(C(=O)N1CCN(c2ncnc3c2C(C)CC3O)CC1)c1ccc(Cl)cc1 | < 5.00 |

The value of pIC50 measured for the compound CCCS(=O)(=O)Nc1ccc(F)c(C(=O)c2c[nH]c3ncc(-c4ccc(Cl)cc4)cc23)c1F + CC(C)NCC(C(=O)N1CCN(c2ncnc3c2C(C)CC3O)CC1)c1ccc(Cl)cc1 turned out to be < 4.00

Consider CC(C)CC(NC(=O)C(Cc1ccccc1)NC(=O)c1cnccn1)B(O)O (stereo unspecified) + CC(C)NCC(C(=O)N1CCN(c2ncnc3c2C(C)CC3O)CC1)c1ccc(Cl)cc1 . Its measured pIC50 is < 8.00

---

# System: 254851-301-R-J1-PDC spheroids, viability % test/control
# assay-overview: Anticancer human tumor 254851-301-R-J1-PDC cell line growth inhibition [TAK];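 note: spheroids exposed to drugs for seven days before viability readout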;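 for viability, T/C: 100% = DMSO vehicle control viability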
# cond: second compound 9.49 µM; first compound 0.00316 µM; stronger effect = lower value; spheroids with HUVEC and MSC
# Procedure: Combinatorial screen of targeted agents with TAK-243 and ipatasertib in multi-cell type tumor spheroids […] Compounds. […] If the clinical Cmax for an agent had not been determined, the highest concentration tested was 10 microM. NCI60 Cell Culture. […] The optimal seeding densities for each of the cell lines at each time point assessed were determined prior to performing the concentration response studies. […]
Measured viability, T/C values are reported for all entries that follow.
Return type: number; implicit unit %.

| compound | unit-string | viability, T/C |
| --- | --- | --- |
| CC(C)CC(NC(=O)C(Cc1ccccc1)NC(=O)c1cnccn1)B(O)O (stereo not drawn) + CC(C)NCC(C(=O)N1CCN(c2ncnc3c2C(C)CC3O)CC1)c1ccc(Cl)cc1 | % | 99 |
| CC(C)CC(NC(=O)CNC(=O)c1cc(Cl)ccc1Cl)B1OC(=O)CC(CC(=O)O)(C(=O)O)O1 (stereo not drawn) + CC(C)NCC(C(=O)N1CCN(c2ncnc3c2C(C)CC3O)CC1)c1ccc(Cl)cc1 | % | 97.7 |

Turning now to a further record.
The compound COc1c(OCCCN2CCOCC2)ccc2c3n(c(=NC(=O)c4cnc(N)nc4)nc12)CCN3 + CC(C)NCC(C(=O)N1CCN(c2ncnc3c2C(C)CC3O)CC1)c1ccc(Cl)cc1 on 254851-301-R-J1-PDC spheroids, viability % test/control: viability, T/C was 99.1

Reference for the values: PubChem BioAssay AID2060358
